// provenance: patent US8410144B2

I'd be grateful if you could share measured inhibition at 10 µM for these entries.
Test system: DLD-1
Assay notes: MTS assay, DLD-1 cells
Format: cell-based
Run conditions: Homo sapiens, 72 hours, read-out: DLD-1, MTS cell kill % inhibition

As a guide, the following entries are already answered.
{"columns": ["Compound", "Readout name", "Test result"],
 "data": [
  ["COc1ccc(C(C)C)cc1-c1c(-c2ccc[nH]c2=O)[nH]c2ccc(C(=O)NCCCN3CCOCC3)cc12", "inhibition at 10 µM", "< 50%"],
  ["O=C(Nc1ccccc1F)c1ccc2[nH]c(-c3ccc[nH]c3=O)c(-c3ccccc3)c2c1", "inhibition at 10 µM", "80 to 100%"],
  ["COc1cc2c(cc1OC)CN(C(=O)c1ccc3[nH]c(-c4ccc[nH]c4=O)c(-c4ccccc4)c3c1)CC2", "inhibition at 10 µM", "50 to 79%"],
  ["O=C(c1ccc2[nH]c(-c3ccc[nH]c3=O)c(-c3ccccc3)c2c1)N1CCN(c2ccccc2F)CC1", "inhibition at 10 µM", "50 to 79%"],
  ["CN1CCCC1CCNC(=O)c1ccc2[nH]c(-c3ccc[nH]c3=O)c(-c3ccccc3)c2c1 (stereo not shown)", "inhibition at 10 µM", "50 to 79%"],
  ["O=C(NCCCN1CCOCC1)c1ccc2[nH]c(-c3ccc[nH]c3=O)c(-c3ccc(Cl)c(Cl)c3)c2c1", "inhibition at 10 µM", "50 to 79%"]
]}

# evaluate next
Query: Query the reported inhibition at 10 µM for DLD-1; item: `COc1ccc(-c2c(-c3ccc[nH]c3=O)[nH]c3ccc(C(=O)NCCCN4CCOCC4)cc23)c(OC)c1`
Response: < 50%
